# System: K4 kissing-loop RNA reporter;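 further: bound reporter read as fluorescence of individual clusters on recovered sequencing chips by microscopy, with normalized cluster intensities fitted with a binding model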
# procedure.summary: apparent KD of K4 kissing-loop reporter; higher = weaker reporter binding
# condition.context: Eterna round: R107; input ligand: none

- ordered.residues: "GGGUGGCAGGCGGCCGCCACUCUGAGGGUCCACAGUGAUGUUGUGGGCGCGUAAGCGUCUUCAUAGAGGACCGGGUUUGUUGUUC [Same State Tryptophan B GF 24]"
  apparent KD of K4 kissing-loop reporter (µM): 0.454
- ordered.residues: "UUUGGUUUCUCGGCCGCCACUCGUUGGUUAUGGGCCUCAGGGAUAUAGUGAUGUUAUGUAAAGAAGAGGACCGGGAGAAGGAAGG [ExTryptoB.Do]"
  apparent KD of K4 kissing-loop reporter (µM): 0.225
- ordered.residues: "GUGACGCGGACGGCCGCCACUCCGGUGACCGCUCCGUGCCGCCCUGCGCGAGUGAUGUUCGCCAGGAGGACCGGGUCCGACUUUA [Soesente]"
  apparent KD of K4 kissing-loop reporter (µM): 0.106
- ordered.residues: "AUGUAUGAAUUAGGAUAUCGUUAGCCUUUCAUAUAUAUGAUAAAUGGAUAUGUCGUAGUGAUGUUACGAGAAGGAGUGUGGAGUA [KL-XFMN-B8]"
  apparent KD of K4 kissing-loop reporter (µM): 0.0382
- ordered.residues: "CAUACUAUCAGAAGGAGCGUGGAAUAUUCAUCUGUAUCUAAUACGAGUGAUGUUCGUAAUUCACAGGUAGGUCGCUGAUUAAUAC [whbob_Ex_Arginine_B_2th159]"
  apparent KD of K4 kissing-loop reporter (µM): 0.267
- ordered.residues: "AGUGGUGUAUCUUUUAAGAGUGAUGUUUUUCGAGGACCGGUACGGCCGCCACUCGAGUGAUGAGUGCGUCGUUGUGGUGAUUAGU [#14 K4 Tryptophan A Exclusion]"
  apparent KD of K4 kissing-loop reporter (µM): 0.826
- ordered.residues: "GCGUGCAAGUCAUGAUGCCCUAUCAGGACUAAGGAUAUAGCGUGACCUAGAAGGUAGCUAGUGAUGUUGGCUGACAUGCUACUGC [theeternabot_exclusion_KL_FMN_A_49]"
  apparent KD of K4 kissing-loop reporter (µM): 0.367
- ordered.residues: "GGUGCGGGCUCGGCCGCCACUCCCUCCUGCCGUAAGGUGGGAUACCGAGUGAUGUUCGGUUGGAGGAGGACCGGGAGCCCGUGCC [#2 Exclusion - Tryptophan B Attempt #16 (HarryS)]"
  apparent KD of K4 kissing-loop reporter (µM): 0.114
- ordered.residues: "GGAUAGGACAGAGGAUAUGGGCUAGGCAAGAAUAACUUGUCUAGCAAAUCCAUGAGGAGUGAUGUUCCAGAAGGUUGUCCUAUCG [FmnBX 1 U75]"
  apparent KD of K4 kissing-loop reporter (µM): 0.0923
- ordered.residues: "AGGUAGUCCCUUGUUGUCAUCGAAGAUGAACGAGGACCGGUACGGCCGCCACUCGGAGUGAUGUUCCGAUGGCUGCAAAAUAAAA [MatMod 23 - Jieux - Exclusion - Tryptophan A]"
  apparent KD of K4 kissing-loop reporter (µM): 0.0972
- ordered.residues: "AACUGUCAAGGCCGACAUUACUGAGGUGAUACCAGCAUCGAAAGAUGCCCUUGGCAGCACCAACUUGCAGUGAUGUUGCAAGUAA [BrourdMod 14 - Jieux - Exclusion - Theophylline A]"
  apparent KD of K4 kissing-loop reporter (µM): 0.17
- ordered.residues: "CCAGGUUGCCGCAACGACCUGGAUUUUAGGGAGGAUAUCCAGAGCAGGAGAAGGCCCAGUGAUGUUGGGCCUGUGGAGCCCAUAU [Ararensoza]"
  apparent KD of K4 kissing-loop reporter (µM): 0.176
- ordered.residues: "AAAAUUGCGGUUUUAAGAUCUUUUUGCUUACGAGGACCGGUACGGCCGCCACUCGAGUCAAGUGAUGUUUGAUUUUCUAUUAUUA [JR_ExcTryptoA_Sub015]"
  apparent KD of K4 kissing-loop reporter (µM): 0.136
- ordered.residues: "CGCAGUGAUGUUGCUAUUAUUCUUGGUUAACGAGGACCGGUACGGCCGCCACUCGGUUUCUAUCUAAUCCAGUGUUUUUUUGAGU [#24 K4 Tryptophan A Exclusion]"
  apparent KD of K4 kissing-loop reporter (µM): 0.556
- ordered.residues: "GAGGUACAGGCGGCCGCCACUAGUGAUGUUAGUGAUAGAAGAUAUAGUAAAUAUCGGCAUUUAGAUAGGACCGGGCCUGGUGGUG [ffdfcmullin]"
  apparent KD of K4 kissing-loop reporter (µM): 0.271
- ordered.residues: "AAUGGAGGCUGAAGGAGCGCCGCCAGUGAUGUUGGGAGUUAGAUACCAGUGAUGUUGGGCCGGCAGGUAGGUCGCGGUUUUUAUU [Exclusion Arginine B Gf 16]"
  apparent KD of K4 kissing-loop reporter (µM): 0.136
- ordered.residues: "GGGAGCAAAGCUCCCGGAUGCUAUUACCAGGAGGAUAUCUGGAAACAGAGAAGGCCUAAGCCAGUGAUGUUGGUUUCGAGCAUCC"
  apparent KD of K4 kissing-loop reporter (µM): 0.278
- ordered.residues: "UGACAUUGCUCAGAUACCAGACAAGAGGAUCACCCUUGUGCCAAAACGUACUAAAUAAAUGUCCCUUGGCAGCUGAGCAAUGUCU [TheoBX 13]"
  apparent KD of K4 kissing-loop reporter (µM): 0.0459
- ordered.residues: "GCAGUGAUGUUGCGCGGGUACAGUGGAGUGCGAGGACCGGUACGGCCGCCACUCGUACAGAACUGGCUAAUAUAUGGAUAGGUGA [VII]"
  apparent KD of K4 kissing-loop reporter (µM): 0.305
- ordered.residues: "GCUAUGGUAGGAAGGAGCGCUACUUUGUUUUUACGAGUGAUGUUCGGAAGCAGAGUGUUAAAGCAGGUAGGUCGCCUACUAUAGC [Arginine B K4 20]"
  apparent KD of K4 kissing-loop reporter (µM): 0.171
- ordered.residues: "UUUAUAUAGUCGGCCGCCACUGAUUUUUUUAUAUGUUUAUGUUUAUACGAGUGAUGUUCGAUAUACAGGACCGGGACUUUUGUUA [JR_SSTryptoB_Sub018]"
  apparent KD of K4 kissing-loop reporter (µM): 0.238
- ordered.residues: "UGAUACCAGACUGAUACCAGCGAGUGAUGUUUGCUGAUCUAAAGCAGUCAAAGACUGCCUUGCCCUUGGCAGCAGUCUGGUAUCU [TheoBX 26 #SwitchBubble #StaticStem]"
  apparent KD of K4 kissing-loop reporter (µM): 0.275
- ordered.residues: "GGGCAUCUGGCUGAUACCAGUGAUAAAGGGUAAGAGACAGGGAGUGAUGUUCCCUUUAGCCACCCUUGGCAGCAGUUUAAGUUUG [Exclusion Theophylline B GF 17]"
  apparent KD of K4 kissing-loop reporter (µM): 0.0947

* * *

This listing pairs sequences with measured apparent KD of MS2 coat protein.
# Tested on: MS2 coat protein
# procedure.summary: apparent KD of MS2 coat protein; designed switch direction (-1 OFF switch, 1 ON switch): 1; higher = weaker reporter binding
# condition.context: input ligand: microRNA oligo, concentration not stated

- ordered.residues: "AUUAUUAAUAUAGGAUAUGUAAAACAUGAGGAUCACCCAUGUGAUAUCGUGAGUAAGGAGAGAGAACAGAAGGAUAUUUUUUUU [JMF's solution 3] (Eterna round: R96, puzzle: Same State NG 2)"
  apparent KD of MS2 coat protein: "30.5 nM"
- ordered.residues: "AGAGGAGGCGCAGGAUAUACGACGGAGGACGUGGUAGAAGGGUGCAUGCGAUAACAUGAGGAUCACCCAUGUACCGCGCGACGA [AK SSNG1-V2-17] (Eterna round: R96, puzzle: Same State NG 1)"
  apparent KD of MS2 coat protein: "30.2 nM"
- ordered.residues: "CGAUGUGAGUCAGGAUAUGGGUUAUCACUCCACAUGAGGAUCACCCAUGUAAAGAGGCCAAGGAGCCAGAAGGGACAUACAUCU [Zaorso] (Eterna round: R96, puzzle: Same State NG 2)"
  apparent KD of MS2 coat protein: "14.2 nM"

* * *

# System: MS2 coat protein
# procedure.summary: apparent KD of MS2 coat protein; higher = weaker reporter binding
# condition.context: Eterna round: R107; input ligand: theophylline 2 mM
Classification field: enter TRUE for apparent KD of MS2 coat protein values not below 30 nM, FALSE for values below it.

- ordered.residues: "GCAUCCUAGUCGGCCGCCACUGCACGAUCAGUGGCAGAUCGUCAACAUGAGGAUCACCCAUGUAGCAGGACCGGGACUAGGAUGC [(Trp1)-(TM)''-(TM)'-(Ms2)-(Trp2)_Design3]"
  group: "FALSE"
- ordered.residues: "GGGCCCGGGCGCGAGCCCGGGCCCAUUGAUACCAGUGAAUGUGUGCGCCCUUGGCAGCGAAUCCUAACAUGAGGAUCACCCAUGU [5.E]"
  group: "TRUE"
- ordered.residues: "UAUAUAUACUCGGCCGCCACUGAGAGAGUCAUGUAAACAUGAGGAUCACCCAUGUAAUAUAUAUACAGGACCGGGAGUAUAUUAA [4.A]"
  group: "FALSE"
- ordered.residues: "GGCAAGCGAGACAUGAGGAUCACCCAUGUUCGAGGACCGGUACGGCCGCCACUCGGUGGACUCAUGGUAAAGCCGGUGAGCCAAA [AK 1 SS Trypt (A)]"
  group: "TRUE"
- ordered.residues: "GAUAUACGUGCGGCCGCCACUGAGUGGCGGGCGUGUCGAGUUACAUGAGGAUCACCCAUGUCACUCAGGACCGGGCACGGAAUUU [Soveri]"
  group: "FALSE"
- ordered.residues: "UACAUAUGCCGAAGGAGCGUGAGAUGCAAAGCAUCAUUCCUCACAUGAGGAUCACCCAUGUCACAGGUAGGUCGCGGCAUAUGUU [ArgBX 3]"
  group: "TRUE"
- ordered.residues: "UGUAUGGACUGAAGGAGCGGUAGAUAACUUGAGGAUCACCCAGGUAAUAAGGCGAAAGCCUACCAGGUAGGUCGCAGUCCAUACU"
  group: "TRUE"
- ordered.residues: "UUCAGCUAGUCGGCCGCCACUACAAGAGGAUCACCCUUGUAGGUCCACACUGCUUCGGCAGUGAGUAGGACCGGGACUAGCUGAG"
  group: "FALSE"
- ordered.residues: "UACUUGCUGACGGCCGCCACUAGAACAUGAGGAUCACCCAUGUAUGGCGGCCGUCAUGGGUGGACUAGGACCGGGUCAGCAAGAU [(Trp1)-(Ms2)-(T)'-(M)'-(Trp2)_Design7]"
  group: "FALSE"
- ordered.residues: "AAAAUAAAGGCGGCCGCCACUAGAGUUAGGCUUAUGUACUGGGUAACAUGAGGAUCACCCAUGUAUAGGACCGGGCCAUAAUAAA [Same State - Tryptophan B (Freestyle 2)]"
  group: "TRUE"
- ordered.residues: "AACAACUAGUCGGCCGCCACUCAUAAUACAUGAGGAUCACCCAUGUAUACUUGGUUUUUAUAUUUGAGGACCGGGACAGUUGCAU [JR_Nu_ExcTryptoB_Sub026]"
  group: "FALSE"

Where do these numbers come from? They come from the supplement of paper PMC9170038.
